System: SN12C renal
Method description: NCI-60 one-dose screen, 48 h (100 = growth as untreated, 0 = no growth, -100 = all killed)
Study conditions: 10 µM unless noted
Protocol: Growth inhibition of the SN12C human tumor cell line is measured as a screen for anti-cancer activity. Cells are grown in 96 well plates and exposed to the test compound for 48 hours. Compounds are tested at a single concentration, which is 10^-5 M for most compounds. The reported endpoint is percent growth (GI% or GIPRCNT), where numbers from 0 - 100% represent growth inhibition, and numbers from -100% - 0 represent cell death. For example, a value of 40 represents 60% growth inhibition. […]
About 83,000 compounds went through this panel and 20% of them were active in at least one assay; those are over-represented in the sample as a whole.
// growth lookup, one value per entry
A number alone suffices; assume %.

Some solved cases for reference:
Structure notation	Readout kind	Quantity unit	Recorded value
C(=N\Nc1nnc2n1N=C(c1ccccc1)CS2)/c1ccc(OCc2ccccc2)cc1	growth	%	98.6
CCC(=C(c1ccc(OCCN(CC)CC)cc1)c1ccc(OCCN(CC)CC)cc1)c1ccc(Cl)cc1	growth	%	-77

// below: growth requested for another molecule
Query string: Bench note: what growth did CN(C)C(=O)OCc1ccc2c(Cl)cc(Cl)c(O)c2n1 show?
Result string: 36.6

---

Tested on: HCT-15 colon
Method description: NCI-60 one-dose screen, 48 h
Study conditions: 10 µM unless noted
The panel holds about 83,000 compounds, 20% with a hit somewhere; the sample as a whole holds those more often. Calls of active or inactive are those of the source. Rule for the calls: active = growth percent below 10; inactive = the rest.
In this exercise, the only acceptable responses are TRUE for active, FALSE for inactive

Compound	Assigned label
COc1cccc(C2C(C#N)=C(N)Oc3c2ccc2ccccc32)c1 (centres undefined)	TRUE
c1ccc2cc(Cn3cc[n+](Cc4ccc5ccccc5c4)c3)ccc2c1	FALSE
CCn1c2ccccc2c2cc(C(O)c3cccc4ncccc34)ccc21 (centres undefined)	FALSE
CN(C)c1ccc(/C=C/C2=[N+](C)c3ccccc3C2(C)C)cc1	FALSE
COc1cc2c(c(OC)c1OC)C(=O)CC(c1cccc(C(=O)Nc3ccc(Br)cc3)c1)O2 (centres undefined)	FALSE

Query string: Write down the call the test reported for this compound. Item: Oc1cccc2c1NCCC2
Result string: FALSE

Query string: Write down the call the test reported for this compound. Item: CCN1C(=O)N(CC)C2C1NN=c1s/c(=C\c3ccc([N+](=O)[O-])cc3)c(=O)n12 (centres undefined)
Result string: FALSE

Query string: Write down the call the test reported for this compound. Item: CCN1C(=O)N(CC)C2C1NC(=S)N2/N=C/C=C/c1cccs1 (centres undefined)
Result string: FALSE

---

Tested on: MDA-MB-231 breast
Method description: NCI-60 one-dose screen, 48 h
Study conditions: 10 µM unless noted
About 83,000 compounds went through this panel and 20% of them were active in at least one assay; those are over-represented in the sample as a whole. The source made the active and inactive calls. The calls were made as follows: active = growth percent below 10; inactive = the rest.
In this exercise, the only acceptable responses are True = active, False = inactive

Please review the following examples before continuing.
Compound	Assigned label
O=C(Cn1cc(CSc2nc3ccccc3o2)nn1)Nc1ccc([N+](=O)[O-])cc1	False
CCOC(=O)C1=C(c2ccccc2)N=C2N(c3ccccc3)N=C(C(C)=O)N2C1c1ccc(Br)cc1 (configuration not stated)	False

Query string: Write down the call the test reported for this compound. Item: CCN(CC)CCCNc1cc(OC)cc2cccnc12
Result string: False

Query string: Write down the call the test reported for this compound. Item: COC(=O)c1c(C(=O)OC)c2ccc3c4ncccc4ccc3n2c1C(=O)c1ccc(C)cc1
Result string: False

Query string: Write down the call the test reported for this compound. Item: CC(=O)OCC(=O)O[C@@H]1C[C@]2(C(C)C)O[C@@]1(C)[C@@H]1CC[C@@H](C)[C@H]1[C@@H]2OC(=O)/C=C/c1ccccc1
Result string: False

Query string: Write down the call the test reported for this compound. Item: O=C(O)COc1ccc(F)cc1
Result string: False

Query string: Write down the call the test reported for this compound. Item: COc1ccc(NC(=O)c2sc3nc(C)c(C(=O)c4ccccc4)cc3c2N)cc1
Result string: False

Query string: Write down the call the test reported for this compound. Item: O=C1C(c2c(O)[nH]c3ncccc23)=Nc2ccccc21
Result string: False

Query string: Write down the call the test reported for this compound. Item: N=C(N)c1ccc(-c2ccc(-c3ccccc3)s2)nc1
Result string: False

Query string: Write down the call the test reported for this compound. Item: COC(=O)[C@@H](Cc1c[nH]c2ccccc12)NC[C@@H](O)CN1C(=O)/C(=C\c2cc(OC)c(OC)c(OC)c2)c2ccccc21
Result string: False

Query string: Write down the call the test reported for this compound. Item: C[C@@H]1N=C(c2ccc(Cl)cc2Cl)Nc2nc3ccccn3c2C1=O
Result string: False

Query string: Write down the call the test reported for this compound. Item: O=C(/C=C/c1ccc([N+](=O)[O-])cc1)c1cccc(Nc2nc(Nc3ccccc3)nc(Nc3ccccc3)n2)c1
Result string: False

Query string: Write down the call the test reported for this compound. Item: COc1cc2c(c(OC)c1OC)CCC(c1cccc(NC(=O)c3cccc(Cl)c3)c1)O2 (configuration not stated)
Result string: False

Query string: Write down the call the test reported for this compound. Item: Cc1ccc(Nc2cc(N)nc(N)n2)cc1
Result string: False

Query string: Write down the call the test reported for this compound. Item: [2H]C([2H])([2H])Oc1ccc(/C=C/C(=O)/C=C(/C=C/c2ccc(OC([2H])([2H])[2H])c(OC([2H])([2H])[2H])c2OC([2H])([2H])[2H])OB(F)F)c(OC([2H])([2H])[2H])c1OC([2H])([2H])[2H]
Result string: False

Query string: Write down the call the test reported for this compound. Item: Cc1ccc(C23CCC(=O)N2CCc2cncn23)cc1 (configuration not stated)
Result string: False

Query string: Write down the call the test reported for this compound. Item: Cc1c2ccncc2c(C)c2c1c1ccccc1n2CCCCCC(=O)O
Result string: False

Query string: Write down the call the test reported for this compound. Item: Cc1c(C(=O)C(SC(=S)N2CCOCC2)SC(=S)N2CCOCC2)nnn1-c1ccc([N+](=O)[O-])cc1
Result string: False

Query string: Write down the call the test reported for this compound. Item: CN1/C(=C/C=C/c2n(Cc3ccc4ccccc4c3)c(Cl)c(Cl)[n+]2Cc2ccc3ccccc3c2)Oc2ccccc21
Result string: True

Query string: Write down the call the test reported for this compound. Item: Cc1nc2sc(C(=O)Nc3ccccc3)c(N)c2cc1C(O)c1ccccc1 (configuration not stated)
Result string: False

Query string: Write down the call the test reported for this compound. Item: COc1ccc(N/N=C/c2ccc3c(c2)Sc2ccccc2N3C)cc1
Result string: False

Query string: Write down the call the test reported for this compound. Item: COC(=O)[C@H]1Cc2c([nH]c3ccccc23)[C@H](c2ccc3c(c2)OCO3)N1
Result string: False

---

Test system: UACC-62 melanoma
Method description: NCI-60 one-dose screen, 48 h
Study conditions: 10 µM unless noted
About 83,000 compounds went through this panel and 20% of them were active in at least one assay; those are over-represented in the sample as a whole. Activity calls are given as the source filed them. Rule for the calls: active = growth percent below 10; inactive = the rest.
In this exercise, the only acceptable responses are active, inactive

Please review the following examples before continuing.
Molecule	Assigned label
CN(C)c1ccc(Cc2cc(-c3ccccc3)nn(C/C(=N/O)c3ccccc3)c2=O)cc1	inactive
C=C(C)[C@@H]1CC[C@]2(C(=O)NC(C)=O)CC[C@]3(C)[C@H](CC[C@@H]4[C@@]5(C)CCCNC(C)(C)[C@@H]5CC[C@]43C)[C@@H]12	inactive
CC(C)=CC(=O)C1C(=O)c2ccccc2C1=O	inactive
Cn1nc(-c2ccc(Cl)cc2)nc2c(=O)n(C)c(=O)nc1-2	active
CCOC(=O)c1cc(C(=O)c2cc(OC)cc(OC)c2)n2ccccc12	inactive

Query string: Write down the call the test reported for this molecule. Item: CC(=O)CC(=O)c1ccccc1.[Cu+2]
Result string: inactive

Query string: Write down the call the test reported for this molecule. Item: O=C1C(Nc2ccc(Br)cc2)=C(I)C(=O)c2ncccc21
Result string: active

Query string: Write down the call the test reported for this molecule. Item: CCNCCNc1c(C)c(-c2ccc(C(F)(F)F)cc2)c(C#N)c2nc3ccccc3n12
Result string: inactive

Query string: Write down the call the test reported for this molecule. Item: COc1ccc(/C=C\c2cc(OC)c(OC)c(OC)c2)cc1OCC(=O)Nc1nc2ccccc2s1
Result string: inactive

Query string: Write down the call the test reported for this molecule. Item: O=C1c2ccccc2-c2c1c1ccncc1c(=O)n2CCCn1ccnc1
Result string: inactive

---

Test system: IGROV1 ovarian
Method description: NCI-60 one-dose screen, 48 h (100 = growth as untreated, 0 = no growth, -100 = all killed)
Study conditions: 10 µM unless noted
The panel holds about 83,000 compounds, 20% with a hit somewhere; the sample as a whole holds those more often. The source made the active and inactive calls. How the source made its calls: active means growth percent below 10; inactive means the rest.
Readout kind: growth

Some solved cases for reference:
Compound	Experimental target	Readout kind	Recorded value
COc1ccccc1/C=C/C1=C(C)CCC(c2ccccc2OC)C1C (stereo not given)	IGROV1 ovarian	growth	-48.7% (active)
CC1=C(C(=O)c2ccccc2)C(c2ccc3c(c2)OCO3)NC(=S)N1 (stereo not given)	IGROV1 ovarian	growth	46.1% (inactive)
CCCNNC(=O)c1ccc(CNC(=O)/C=C/c2ccccc2)cc1	IGROV1 ovarian	growth	30.5% [2.5 µM] (inactive)

Query string: Bench note: what growth did O=C(CN1C(=O)NC2NC(=O)NC21)N/N=C/c1cccc([N+](=O)[O-])c1 (stereo not given) show?
Result string: 103% (inactive)

Query string: Bench note: what growth did COc1ccc(C2=NN(C=O)C(c3ccc(Oc4nc5c(c(=O)n(C)c(=O)n5C)n4C)c(OC)c3)C2)cc1 (stereo not given) show?
Result string: 87.7% (inactive)
